Tested on: NCI-H226
Measurement notes: NCI tumour cell line growth inhibition, 48 h
The source made the active and inactive calls. Rule as the data show it: active = GI50 up to about 1.1 µM and inactive = higher. Non-standard residues stand in square brackets, D forms with d. Residues, ends and D or L forms follow the SMILES beside them. *: point of attachment. Benzoyl(4-OMe) = COc1ccc(C(=O)*)cc1; 2Thi = N[CH](Cc1cccs1)C(=O)O
Outcomes: T = active, F = inactive

| Compound | Cat |
| --- | --- |
| C=CCOCCC(CC=C)C(=O)CC(=O)OC (stereo not given) | F |
| CN(C)CCOc1ccc2c(c1)C/C(=C/c1ncc([N+](=O)[O-])n1C)C2=O | F |
| CC[N+](C)(C)c1ccc(C(=C2C=CC(=[N+](C)C)C=C2)c2ccc(N(C)C)cc2)cc1 | F |
| CCC(C)C(NC(=O)C(Cc1cccs1)NC(=O)C(CC(C)C)NC(=O)C(CC(C)C)NC(=O)C(CCCCN)NC(=O)C(CCCNC(=N)N)NC(=O)c1ccc(OC)cc1)C(=O)NC(CC(C)C)C(N)=O (stereo not given) ({Benzoyl(4-OMe)}-RKLL[2Thi]IL-NH2; configuration not given here) | F |
| C=C1C(=O)C([Si](C)(C)C)=C2C=C(C)C3(CC3)C12C (stereo not given) | F |
| O=C(NCCCCN(CCCNC(=O)C(F)(F)F)Cc1ccc2ccccc2c1)C(F)(F)F | F |
| O=C1CC2C=CC1C2CO (stereo not given) | F |
| CC1=CC(=O)/C(=C/N2CCNC2=S)C(=O)O1 | F |
| O=C1C2CCCCC2C(=O)N1n1c(Cc2ccccc2)n[nH]c1=O (stereo not given) | F |
| CCN1CC2(C)CC[C@@H](OC)C34[C@@H]2[C@H](OC(C)=O)C2(OCO[C@@]25C[C@H](OC)C2C[C@]3(O)[C@@H]5[C@H]2O)[C@H]14 | F |
| CN(C)CCOc1ccc(-c2c(Oc3ccc(Cl)cc3)c(=O)oc3ccccc23)cc1 | F |
| C#CC1=CC(=O)C(OC)=CC1=O | F |
| CCOC(=O)c1c[nH]c2cc3c(cc2c1=O)CCS3(=O)=O.CCOC(=O)c1c[nH]c2ccc3c(c2c1=O)S(=O)(=O)CC3 | F |
| COc1cc(-c2cc(CCC(=O)Nc3ccccc3[N+](=O)[O-])n(-c3ccc([N+](=O)[O-])cc3[N+](=O)[O-])n2)ccc1O | F |
| C=CCC12CC(=O)C=C1CCC1(C2)OCCO1 (stereo not given) | F |
| Cc1cc2c(c3oc(C(O)(CO)C4CO4)cc(=O)c13)C(=O)c1c(O)cccc1C2=O (stereo not given) | T |
| O=C1C=C(Nc2ccc(S(=O)(=O)Nc3nccs3)cc2)c2ccccc2C1=O | F |
| O=S(=O)(N/C(=N\O)Nc1ccc(Cl)cc1)c1cc(C(F)(F)F)cc(C(F)(F)F)c1 | F |
| OCC(O)C(O)C(O)C(O)c1nc2cc(Cl)ccc2[nH]1 (stereo not given) | F |
| Cn1nc(-c2ccccc2NC(=O)C(F)(F)F)c(=O)n(C)c1=S | F |
| O=C1c2cc(Cl)ccc2N=C(NCCCl)C2CSCN12 (stereo not given) | F |
| CC(C)(C)c1cc(/C=C/C(=O)CC(=O)/C=C/c2cc(C(C)(C)C)c(O)c(C(C)(C)C)c2)cc(C(C)(C)C)c1O | F |
| Cc1ccccc1NC(=O)C(=O)CC(=O)c1c(C)[n+]([O-])c2ccccc2[n+]1[O-] | F |
| N=C(N)c1ccc(/N=N\c2c(O)ccc3cc4c(/N=N\c5ccc(C(=N)N)cc5)c(O)ccc4cc23)cc1 | F |
| Cc1cc2c(cc1C)[n+]([O-])c(C(=O)/C=C/c1ccccc1[N+](=O)[O-])c(C)[n+]2[O-] | F |
| CN1C2(c3ccccc3)C(C(=O)c3ccccc3)=C(C(=O)c3ccccc3)C1(c1ccccc1)c1c(-c3ccccc3)sc(-c3ccccc3)c12 | F |
| Cn1c(COC(=O)NC2CCCCC2)c(COC(=O)NC2CCCCC2)c2ccc3ccccc3c21 | F |
| Cc1cc2oc(C)c(S(=O)(=O)NC(=O)Nc3ccc(Cl)cc3)c(=O)c2c(=O)o1 | F |
| COc1ccc(C2c3cc4c(cc3OC(NCCO)C2C)OCO4)cc1 (stereo not given) | F |
| C[C@]12CC/C(=N\O)C=C1CC[C@@H]1[C@@H]2CC[C@]2(C)C(=N/O)/C(=C/c3cccnc3)C[C@@H]12 | F |
| CC(C)(C)[Si](C)(C)OCC1OC(n2cc(F)c(=O)[nH]c2=O)CC1O[Si](C)(C)C(C)(C)C (stereo not given) | F |
| CC1=CP(=O)(c2c(C(C)C)cc(C(C)C)cc2C(C)C)CCC1Cl (stereo not given) | F |
| C[C@H]1[C@H](C)CC[C@]2(C(=O)OC3OC(CO)C(O)C(O)C3O)CC[C@]3(C)C(=CC[C@@H]4[C@@]5(C)C[C@H]6OC(=O)c7cc(O)c(O)c(O)c7-c7c(cc(O)c(O)c7O)C(=O)O[C@@H]6C(CO)(CO)[C@@H]5CC[C@]43C)[C@H]12 (stereo not given in full) | F |
| O=[PH](O)c1cccnc1 | F |
| Cc1cc(NC(=O)NC(=O)c2ccccc2[N+](=O)[O-])ccc1Oc1ncc(Cl)cn1 | T |

----------
System: SNB-19
Measurement notes: NCI tumour cell line growth inhibition, 48 h
Activity calls are given as the source filed them. No stated cut-off is given here; in the data, active = GI50 up to about 1.1 µM and inactive = higher. Where a SMILES comes first, the peptide text is derived from it. The star is where a group is joined. Cbz = O=C(OCc1ccccc1)*
The following compounds are shown together with reported GI50 values.

| Compound | GI50 |
| --- | --- |
| CCOC(=O)CCC(NC(=O)CNC(=O)CNC(=O)C(CCC(=O)OCC)NC(=O)C(CCC(=O)OCC)NC(=O)C(CCC(=O)OCC)NC(=O)OCc1ccccc1)C(=O)NC(CCC(=O)OCC)C(=O)NC(CCC(=O)OCC)C(=O)OCC (centres undefined) (Cbz-E(OEt)E(OEt)E(OEt)GGE(OEt)E(OEt)E(OEt)-OEt; configuration not given here) | > 75 µM (inactive) |
| CCOP(=O)(CN=C(c1ccccc1)c1ccccc1)OCC | > 100 µM (inactive) |
| O=C1Cc2c(-c3cccs3)cc(-c3ccccc3)nc2-c2ccccc2N1 | 47.9 µM (inactive) |
| COC(=O)[C@@H]1C[C@@]2(C3C=CN(C(=O)C(F)(F)F)C=C3)c3ccccc3N(C(=O)C(F)(F)F)[C@H]2N1C(=O)OC | 71.6 µM (inactive) |

----------
Tested on: 786-0
Measurement notes: NCI tumour cell line growth inhibition, 48 h
Calls of active or inactive are those of the source. Rule as the data show it: active = GI50 up to about 1.1 µM and inactive = higher. Non-standard residues stand in square brackets, D forms with d. Residues, ends and D or L forms follow the SMILES beside them. *: point of attachment. Benzoyl(4-OMe) = COc1ccc(C(=O)*)cc1; 2Thi = N[CH](Cc1cccs1)C(=O)O
Outcomes: active, inactive

| Molecule | Cat |
| --- | --- |
| O=c1c(-c2ccccc2)c2oc(c1-c1ccccc1)CS(=O)(=O)CCC2 | inactive |
| c1ccc2c(c1)[nH]c1c2nc2ccccn21 | inactive |
| O=P1(N(CCCl)CCCl)NCCCO1 (centres undefined) [CYCLOPHOSPHAMIDE ANHYDROUS] | inactive |
| O=C(Cc1ccccc1)N/N=C(/CCN1CCCC1)CC(c1ccccc1)c1c(O)c2ccccc2oc1=O (centres undefined) | inactive |
| Cc1c(C(=O)O)n(C)c(=O)n(C)c1=O | inactive |
| CC(=O)c1c(C(F)(F)F)[n+]([O-])c2cc(Cl)c(Cl)cc2[n+]1[O-] | active |
| N#Cc1nc(C(=O)c2ccccc2)oc1N | inactive |
| CCC(C)C(NC(=O)C(Cc1cccs1)NC(=O)C(CC(C)C)NC(=O)C(CC(C)C)NC(=O)C(CCCCN)NC(=O)C(CCCNC(=N)N)NC(=O)c1ccc(OC)cc1)C(=O)NC(CC(C)C)C(N)=O (centres undefined) ({Benzoyl(4-OMe)}-RKLL[2Thi]IL-NH2; configuration not given here) | inactive |
| O=C(Nc1ccccc1)OC1OC(COC(=O)c2ccccc2)C(OC(=O)c2ccccc2)C1OS(=O)(=O)c1ccc([N+](=O)[O-])cc1 (centres undefined) | inactive |
| Clc1ccc2nc3c(c(-c4ccccc4)nn3-c3ccccc3)c(-c3ccccc3)c2c1 | inactive |
| NC(=O)Nc1c(Cl)cc(S(N)(=O)=O)cc1Cl | inactive |
| CCCc1cc(=O)oc2c3c(c4c(c12)OC(C)(C)C=C4)O[C@@H](C)[C@H](C)C3=O | inactive |
| CCN1CC2(C)CC[C@@H](OC)C34[C@@H]2[C@H](OC(C)=O)C2(OCO[C@@]25C[C@H](OC)C2C[C@]3(O)[C@@H]5[C@H]2O)[C@H]14 | inactive |
| COc1ccc(Cl)cc1NC(=O)c1cccc([N+](=O)[O-])c1O | inactive |
| O=C/C(=C1/C=Cc2cc([N+](=O)[O-])ccc2S1)c1ccccc1 | inactive |
| CC1=C(O)C(=O)C2C(=O)C1C(C)C2c1ccccc1 (centres undefined) | inactive |
| CC(CC(=O)O)(CC(=O)O)c1ccccc1 | inactive |
| CCCCOC(=O)C1C2CCC(O2)C1C(=O)OCCCC (centres undefined) | inactive |
| Cc1nn(C)c2c1C(=O)N(C)CC(=O)N2C | inactive |
